Measured growth inhibition accompanies every entry in the list below.
Assay: NCI Yeast Anticancer Drug Screen. Data for the rad50 strain (AID 155);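 also: 0% = growth of vehicle-only cultures of the same strain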
Details: S. cerevisiae rad50 strain growth inhibition; at 11.0 µM; active compounds read high
Method: Growth inhibition of yeast strains with defined genetic alterations is measured as a screen for potential anti-cancer activity. Selected strains with alterations in DNA damage repair or cell cycle control were exposed to compounds and growth inhibition was measured relative to vehicle treated controls. The strain used in this assay is rad50
The panel holds about 79,000 compounds, 15% with a hit somewhere; the sample as a whole holds those more often.
Unit % implied. Number only.

Some solved entries appear below for comparison.
Problem: Tell me its growth inhibition given O=P(C(=S)Nc1c(Cl)cccc1Cl)(c1ccccc1)c1ccccc1 as the entry.
Result: 14

Problem: Tell me its growth inhibition given c1ccc2nc3c(nc2c1)sc1ccccc13 as the entry.
Result: 92

Problem: Tell me its growth inhibition given OC(CC(O)(C(F)(F)F)C(F)(F)F)c1ccc(C(O)CC(O)(C(F)(F)F)C(F)(F)F)cc1 (stereo not given) as the entry.
Result: 92

Problem: Tell me its growth inhibition given CN(C)/C(=N/C(=S)Nc1ccccc1)SCc1ccccc1 as the entry.
Result: -7

Problem: Tell me its growth inhibition given O=[N+]([O-])c1cc[n+]([O-])c(Cl)c1 as the entry.
Result: 28

Problem: Tell me its growth inhibition given Cc1cccc2c(Cl)c3cccc(C)c3nc12 as the entry.
Result: 21

Problem: Tell me its growth inhibition given O=C(C(Cl)=C(N1CCCCC1)N1CCCCC1)C(Cl)Cl as the entry.
Result: -2

Problem: Tell me its growth inhibition given O=C(O)c1cc2c(cc1S(=O)(=O)O)C1C(C3C2C2(Cl)C(Cl)=C(Cl)C3(Cl)C2(Cl)Cl)C2(Cl)C(Cl)=C(Cl)C1(Cl)C2(Cl)Cl (stereo not given) as the entry.
Result: 9

Problem: Tell me its growth inhibition given O=C1C=C(Br)C(=O)c2ccccc21 as the entry.
Result: 98

Next:
Problem: Tell me its growth inhibition given CCN1CCC(O)(c2ccc(Oc3ccc(C)cc3)cc2)C(C(=O)c2ccc(Oc3ccc(C)cc3)cc2)C1 (stereo not given) as the entry.
Result: 97

* * *

Assay: NCI Yeast Anticancer Drug Screen. Data for the mgt1 strain (AID 153)
Conditions: S. cerevisiae mgt1 mutant growth inhibition; at 33.0 µM; active compounds read high
About 79,000 compounds went through this panel and 15% of them were active in at least one assay; those are over-represented in the sample as a whole.
Measured growth inhibition accompanies every entry in the list below.
Unit % implied. Number only.

Some solved entries appear below for comparison.
Problem: Tell me its growth inhibition given NCCCSc1ccccc1 as the entry.
Result: 13

Problem: Tell me its growth inhibition given CNC(=S)N/N=C(/C)CCC/C(C)=N/NC(=S)NC as the entry.
Result: 22

Problem: Tell me its growth inhibition given O=[N+]([O-])c1ccc(S(=O)(=O)Cc2ccccc2)c([N+](=O)[O-])c1 as the entry.
Result: 98

Next:
Problem: Tell me its growth inhibition given Cc1cccc2c1C1c3c(C)cccc3C(CC(=O)O)CC1CC2 (configuration not stated) as the entry.
Result: 97

Problem: Tell me its growth inhibition given Cc1cccc(C)c1NC(=O)C(C#N)C1=C(Cl)C(=O)c2ccccc2C1=O (configuration not stated) as the entry.
Result: 98

Problem: Tell me its growth inhibition given CC1(C)C(O)OC(O)C1(C)C (configuration not stated) as the entry.
Result: 16

* * *

Assay: NCI Yeast Anticancer Drug Screen. Data for the mlh1 strain (AID 171);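 also: 0% = growth of vehicle-treated control cultures of the same strain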
Conditions: S. cerevisiae mlh1 strain growth inhibition; at 11.0 µM; active compounds read high
About 79,000 compounds went through this panel and 15% of them were active in at least one assay; those are over-represented in the sample as a whole.
readout-type: growth inhibition (%)
Unit % implied. Number only.

Problem: Tell me its growth inhibition given O=C(NOC(=O)c1ccc([N+](=O)[O-])cc1)c1ccc(Cl)cc1 as the entry.
Result: -1

Next:
Problem: Tell me its growth inhibition given CCCCCCCCN1COCC(COc2ccccc2C)OC1 (stereo not drawn) as the entry.
Result: 0

Problem: Tell me its growth inhibition given COc1cc([C@@H]2c3cc4c(cc3[C@@H](NC(=O)NO)[C@H]3COC(=O)[C@H]23)OCO4)cc(OC)c1O as the entry.
Result: 1

Problem: Tell me its growth inhibition given COC(=O)c1cnc(Cl)c([N+](=O)[O-])c1 as the entry.
Result: 92

Problem: Tell me its growth inhibition given CC(=O)CCC1=C(C)C(=O)C(=O)C(C)=C1O as the entry.
Result: -23

Problem: Tell me its growth inhibition given CC(/C=C/c1ccc([N+](=O)[O-])o1)=N/N1CC(CN2CCOCC2)OC1=O (stereo not drawn) as the entry.
Result: -2

Problem: Tell me its growth inhibition given CC(C)OC(=O)NNc1c(Cl)cc(Cl)cc1Cl as the entry.
Result: 4

Problem: Tell me its growth inhibition given Nc1cccc(-c2cc[cH-]c2)c1.[Fe+2].c1cc[cH-]c1 as the entry.
Result: 8

Problem: Tell me its growth inhibition given CN(C)CC(CN(C)C)C(=O)/C=C/c1ccc(Cl)cc1Cl as the entry.
Result: 10

Problem: Tell me its growth inhibition given CN(CCOc1ccc(Cl)cc1)CCOc1ccc(Cl)cc1 as the entry.
Result: 41

Problem: Tell me its growth inhibition given Cc1cccc2c(Cl)c3cccc(C)c3nc12 as the entry.
Result: 3

Problem: Tell me its growth inhibition given Fc1ccc(Nc2ccc3ccccc3c2)cc1 as the entry.
Result: -2

* * *

Assay: NCI Yeast Anticancer Drug Screen. Data for the CLN2oe strain (AID 163);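 also: 0% = growth of vehicle-only control cultures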
Conditions: S. cerevisiae CLN2oe strain, at 1.2 µM, active compounds read high
The panel holds about 79,000 compounds, 15% with a hit somewhere; the sample as a whole holds those more often.
readout-type: growth inhibition (%)
Unit % implied. Number only.

Problem: Tell me its growth inhibition given Cc1ccccc1NC(=O)c1c(C)oc2c1C(=O)c1ccccc1C2=O as the entry.
Result: -13

Problem: Tell me its growth inhibition given O=[N+]([O-])c1ccc(S(=O)(=O)Cc2ccccc2)c([N+](=O)[O-])c1 as the entry.
Result: -1

Problem: Tell me its growth inhibition given COc1c2c(c3c(c1CCC(=O)O)OC(C)(C)C=C3)OC(C)(C)C=C2 as the entry.
Result: -1

Next:
Problem: Tell me its growth inhibition given O=[N+]([O-])c1ccc2nc(=S)[nH]n2c1 as the entry.
Result: -2

Problem: Tell me its growth inhibition given Cc1ccc(NC(Nc2ccc(C)cc2C)=C(C(Cl)=C(Cl)Cl)[N+](=O)[O-])c(C)c1 as the entry.
Result: -3

Problem: Tell me its growth inhibition given NC(=S)N1N=C2c3ccccc3CC[C@H]2[C@@H]1c1ccc(Cl)cc1 as the entry.
Result: -6

* * *

Assay: NCI Yeast Anticancer Drug Screen. Data for the rad50EPP+ strain (AID 151);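 also: 0% = growth of vehicle-treated control cultures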
Settings: S. cerevisiae rad50 mutant strain, at 33.0 µM, active compounds read high
Method: Growth inhibition of yeast strains with defined genetic alterations is measured as a screen for potential anti-cancer activity. Selected strains with alterations in DNA damage repair or cell cycle control were exposed to compounds and growth inhibition was measured relative to vehicle treated controls. The strain used in this assay is rad50EPP+
Compounds without any hit were thinned out: in the full panel of roughly 79,000, 15% have a hit.
Measured growth inhibition accompanies every entry in the list below.
Unit % implied. Number only.

Some solved entries appear below for comparison.
Problem: Tell me its growth inhibition given CSC(=S)N/N=C/c1ccccc1 as the entry.
Result: 60

Problem: Tell me its growth inhibition given O=C1CCC(Cc2ccccc2)CN1 (stereo unspecified) as the entry.
Result: 25

Problem: Tell me its growth inhibition given c1ccc([P+](CCN2Cc3ccccc3C2)(c2ccccc2)c2ccccc2)cc1 as the entry.
Result: -8

Problem: Tell me its growth inhibition given COc1c2c(c3c(c1CCC(=O)O)OC(C)(C)C=C3)OC(C)(C)C=C2 as the entry.
Result: 15

Problem: Tell me its growth inhibition given CCCCN(CCCC)c1ccc(N=Nc2ccc(S(=O)(=O)O)cc2)cc1 as the entry.
Result: 84

Next:
Problem: Tell me its growth inhibition given CCN(CC)CCC(=O)Nc1ccc2sc3ccccc3c(=O)c2n1 as the entry.
Result: 94

Problem: Tell me its growth inhibition given C[n+]1c(-c2ccc(/C=N/NC(=O)c3ccc(C(=O)N/N=C/c4ccc(-c5cn6ccccc6[n+]5C)cc4)cc3)cc2)cn2ccccc21 as the entry.
Result: 94

Problem: Tell me its growth inhibition given ClCCCOc1c(Cl)cc(Cl)cc1Cl as the entry.
Result: 10

Problem: Tell me its growth inhibition given CC1(c2ccccc2)O[C@@H]2C[C@H]3[C@@H]4CCC5=CC(=O)C=C[C@]5(C)[C@@]4(F)[C@@H](O)C[C@]3(C)[C@]2(C(=O)CO)O1 (stereo partly specified) as the entry.
Result: 11

Problem: Tell me its growth inhibition given Nc1ccc2cc(Br)ccc2c1Br as the entry.
Result: 19

Problem: Tell me its growth inhibition given CC(C)(N=Nc1ccc(Cl)cc1)[N+](=O)[O-] as the entry.
Result: 90
